Cited source: ChEMBL document CHEMBL1133783

- test system: Cathepsin K (Homo sapiens, UniProt P43235)
- Sequence (P43235 whole entry): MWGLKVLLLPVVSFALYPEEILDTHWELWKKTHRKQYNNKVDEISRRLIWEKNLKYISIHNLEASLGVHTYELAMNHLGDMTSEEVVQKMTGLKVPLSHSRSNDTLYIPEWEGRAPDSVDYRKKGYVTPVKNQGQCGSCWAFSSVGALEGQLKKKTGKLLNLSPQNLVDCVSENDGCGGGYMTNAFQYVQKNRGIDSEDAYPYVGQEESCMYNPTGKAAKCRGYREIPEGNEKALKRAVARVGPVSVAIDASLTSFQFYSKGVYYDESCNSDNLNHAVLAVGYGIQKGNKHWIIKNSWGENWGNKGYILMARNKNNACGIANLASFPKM
- assay details: Inhibition of cathepsin K
For each record, write down the corresponding pKi.
Scale explanation: pKi corresponds to minus log10 of a concentration expressed in moles per litre.

Lookup: State recorded pKi with Cathepsin K (Homo sapiens, UniProt P43235), entry CC(C)C[C@H](NC(=O)c1cc2ccccc2s1)C(=O)N[C@H]1COCC1=O , no comment.
Found: 8.15

Lookup: State recorded pKi with Cathepsin K (Homo sapiens, UniProt P43235), entry CC(C)C[C@@H](NC(=O)c1ccc2ccccc2n1)C(=O)N[C@@H]1COCC1=O , no comment.
Found: 6.23

Lookup: State recorded pKi with Cathepsin K (Homo sapiens, UniProt P43235), entry CC(C)C[C@H](NC(=O)c1ccc2ccccc2c1)C(=O)NC1CCOCC1=O (single isomer, unassigned; diastereomer 1) , no comment.
Found: 7.49
